TEST PROTOCOL: Human hepatocyte (HepG2) proliferation assay
Format: cell-based
CONDITIONS: human, HepG2 cells, 24 h exposure, XTT
Below is a list of entries, each paired with its recorded EC50 at 24 h value.
MEASURED QUANTITY: EC50 at 24 h

| MOLECULE SMILES | MEASURED QUANTITY | RECORDED VALUE |
| --- | --- | --- |
| c1ccc(CN(CCN(Cc2ccccn2)Cc2ccccn2)Cc2ccccn2)nc1 | EC50 at 24 h | 1.6 µg/mL |
| O=C(O)CN(CCN(CC(=O)O)CC(=O)O)CC(=O)O | EC50 at 24 h | > 28 µg/mL |
| CN(C)c1cc(-n2nc(-c3ccccc3)cc2O)ncn1 | EC50 at 24 h | > 28 µg/mL |
| Cc1cc(O)n(-c2cc(N3CC[C@H](Oc4cnccc4C#N)C3)ncn2)n1 | EC50 at 24 h | > 28 µg/mL |

====

TEST PROTOCOL: Fluorescence-based competition assay using FluoZin-3 (compound-Zn2+ dissociation constant)
Type: binding
CONDITIONS: FluoZin-3 competition, PBS pH 7.4, room temperature; read-out: Compound-Zn^2+ KD

| MOLECULE SMILES | BOUND TYPE | Kd, nM |
| --- | --- | --- |
| CN(C)c1cc(-n2nc(-c3ccccc3)cc2O)ncn1 | = | 71 |
| O=C(O)CN(CCN(CC(=O)O)CC(=O)O)CC(=O)O | < | 10 |
| c1ccc(CN(CCN(Cc2ccccn2)Cc2ccccn2)Cc2ccccn2)nc1 | < | 10 |
| Cc1cc(N)n(-c2cc(N3CC[C@H](Oc4cnccc4C#N)C3)ncn2)n1 | > | 6000 |
| Cc1cc(O)n(-c2cc(N3CC[C@H](Oc4cnccc4C#N)C3)ncn2)n1 | = | 13 |

====

Test system: C. albicans SC5314
TEST PROTOCOL: Antifungal susceptibility testing (MIC)
Format: cell-based, Candida albicans
CONDITIONS: Candida albicans, SC5314, 24 h, at least 50% growth inhibition, RPMI, 24 h, 34°C; read-out: MIC
MEASURED QUANTITY: MIC (µg/mL)

| MOLECULE SMILES | MEASURED QUANTITY | BOUND TYPE | RECORDED VALUE |
| --- | --- | --- | --- |
| Cc1cc(O)n(-c2cc(N3CC[C@H](Oc4cnccc4C#N)C3)ncn2)n1 | MIC | = | 0.4 |
| CN(C)c1cc(-n2nc(-c3ccccc3)cc2O)ncn1 | MIC | = | 0.4 |
| Cc1cc(N)n(-c2cc(N3CC[C@H](Oc4cnccc4C#N)C3)ncn2)n1 | MIC | > | 54 |

====

Below: a set of entries, each annotated with reported pKa.
TEST PROTOCOL: Potentiometric titration, deprotonation constant
Format: physicochemical
CONDITIONS: DMSO-water (70:30, vol/vol), 25°C, 0.1 M NaClO4

| MOLECULE SMILES | pKa |
| --- | --- |
| Cc1cc(O)n(-c2cc(N3CC[C@H](Oc4cnccc4C#N)C3)ncn2)n1 | 7.7 |
| CN(C)c1cc(-n2nc(-c3ccccc3)cc2O)ncn1 | 6.84 |

Origin of the recorded values: paper PMC5923171
